Recorded IC50 by entry
experimental-system: AmpC (UniProt P05364)
Construct: The concentration of purchased β-lactamases mother liquor was 1 mg/mL, and the mother liquor was dissolved in 50% glycerol
method-summary: β-lactamase inhibition, Nitrocefin hydrolysis
Assay type: biochemical
study-conditions: Experiment 1; enzyme 0.4 nM, Nitrocefin 0.1 mM; read-out: IC50 Type C AmpC
Counter-ions that a name gives are not always drawn.
// units = nM; emit number, no label

{"columns": ["molecule", "experimental-system", "IC50 [nM]"],
 "data": [
  ["NC(=O)[C@@H]1CC[C@@H]2CN1C(=O)N2OS(=O)(=O)O [AVI sodium salt, Avibactam, reference compound]", "AmpC (UniProt P05364)", 101]
]}

The measured IC50 associated with O=C(NC1CCNCC1)[C@@H]1CC[C@@H]2CN1C(=O)N2OS(=O)(=O)O [MK-7655, reference compound] reads 49.5
